experiment: chemical genetic growth profiling, strain panel (AID 1159580);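 also: tested at 20 µM; growth read once vehicle control cultures reached saturation at 30 °C; lower values mean less growth of the strain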; conditions: S. cerevisiae deletion strains, growth OD, locus YLR268W, strain sec22
Hit rate of the full screen: of about 5,500 compounds, about 2,000 (36%) were called active. About 18% were inconclusive and are not listed. Rule as the data show it: active = normalized growth mostly below about 0.91 (no sharp cut-off); inconclusive = no clear call, values can overlap the other calls; inactive = mostly above about 0.92. Some of the results follow.
Would you mind answering with one of these outcomes? active, inactive

# outcome recorded in this test, key = COC[C@]12CN(C=O)C3[C@@H]4[C@H](OC)C1[C@]3(C1CC3(O)C(OC)C(O)C4(OC(C)=O)C1C3OC(=O)c1ccccc1)[C@@H](OC)C[C@H]2O (stereo partly drawn) inactive

# outcome recorded in this test, key = COc1ccc2oc3ccccc3c(=O)c2c1 active

# outcome recorded in this test, key = O=c1cccc2n1CC1CC2CN2CCCC[C@@H]12 (stereo partly drawn) inactive

# outcome recorded in this test, key = CC(=O)OCC(=O)[C@@]1(O)CCC2C3CCC4=CC(=O)C=CC4(C)C3[C@@H](O)C[C@@]21C (stereo partly drawn) inactive

# outcome recorded in this test, key = COC(=O)[C@@H]1OC(=O)C2OC23[C@@]1(C)CCC1[C@]2(C)C(C[C@@H](O)[C@]13C)C(C)(C)[C@H](OC(C)=O)C[C@@H]2OC(C)=O (stereo partly drawn) inactive

# outcome recorded in this test, key = C=NC(C(=O)NC1C(=O)N2C1SC(C)(C)C2C(=O)O)c1ccccc1 (stereo not drawn) inactive

# outcome recorded in this test, key = CCCCCCCCCCCC(=O)OCC(COP(=O)(O)OCC(O)COP(=O)(O)OCC(COC(=O)CCCCCCCCCCC)OC(=O)CCCCCCCCCCC)OC(=O)CCCCCCCCCCC (stereo not drawn) inactive

# outcome recorded in this test, key = CC(C)/C(O)=C1/C(=O)O[C@@H](c2ccoc2)[C@]2(C)C(O)[C@@H](O)[C@@]34OC5(C)OC67CC(C)(C(O)[C@]6(O)[C@@H](O)[C@]3(O5)C12)[C@H](CC(=O)O)[C@]74C (stereo partly drawn) inactive
